- study system: DHFR (UniProt P0ABQ4+Q96SW2)
- Construct: Full size proteins are fused for each of the target proteins tested; expressed in transfected cells; host or cells: HEK293T
- assay comment: Recruitment Assay (MAPPIT-like): DHFR recruitment to CRBN, pCLG-DHFR+pMG1-CRBN
- Format: cell-based, E. coli
- test settings: HEK293T cells, luciferase 24 hours after compound treatment; read-out: Recruitment EC50 (M), target protein DHFR
assay readout: EC50 (M)
Numbers only, in M.

Some solved entries appear below for comparison.
COc1cc(Cc2cnc(N)nc2N)cc(OC)c1OCCCCC(=O)NCCOCCOCCOCCNC(=O)COc1ccc(Br)c2c1C(=O)N(C1CCC(=O)NC1=O)C2 (stereo not drawn)    4.69e-07
COc1cc(Cc2cnc(N)nc2N)cc(OC)c1OCCCCC(=O)NCCOCCOCCOCCNC(=O)c1cccc(CNC(=O)CNc2ccc3c(c2)C(=O)N(C2CCC(=O)NC2=O)C3)c1 (stereo not drawn)    3.55e-08
COc1cc(Cc2cnc(N)cc2N)cc(OC)c1OCCCCC(=O)NCCOCCOCCOCCNC(=O)COc1ccc2nc(C(=O)Cc3ccc4c(c3)C(=O)N(C3CCC(=O)NC3=O)C4)ccc2c1 (stereo not drawn)    7.95e-08

For each of the items listed, what is its EC50?
1. COc1cc(Cc2cnc(N)nc2N)cc(OC)c1OCCCCC(=O)NCCOCCOCCOCCNC(=O)Cn1cc(CN(C)C(=O)CNc2ccc3c(c2)C(=O)N(C2CCC(=O)NC2=O)C3)cn1 (stereo not drawn)
2. COc1cc(Cc2cnc(N)nc2N)cc(OC)c1OCCCCC(=O)NCCOCCOCCOCCNC(=O)c1ccc2ncnc(Nc3ccc4c(c3)C(=O)N(C3CCC(=O)NC3=O)C4)c2c1 (stereo not drawn)
3. COc1cc(Cc2cnc(N)nc2N)cc(OC)c1OCCCCC(=O)NCCOCCOCCOCCNC(=O)c1ccc2c(c1)CN(C(=O)CNc1ccc3c(c1)C(=O)N(C1CCC(=O)NC1=O)C3)C2 (stereo not drawn)

["1.19e-07", "4.2e-09", "1.44e-08"]

---

- study system: CRBN (Homo sapiens)
- Construct: expressed in transfected cells; host or cells: HEK293T
- assay comment: Competition Assay: MAPPIT-like, competition with trimethoprim-lenalidomide hybrid ligand for binding to CRBN in HEK293T cells
- Assay type: cell-based
- test settings: protocol and reagents of Example 1; read-out: IC50 Competition
Would you mind telling me the reported pIC50 of each entry?
One number for each entry, as −log10 of the molar value.

Some solved entries appear below for comparison.
Cn1ncc2c(Nc3ccc4c(c3)CN(C3CCC(=O)NC3=O)C4=O)ncnc21 (centres unmarked) [Compound C80374]    4.78
CCOC(=O)NCCNc1ccc2c(c1)CN(C1CCC(=O)NC1=O)C2=O (centres unmarked) [Compound C35754]    6.13
O=C1CCC(N2C(=O)c3ccccc3C2O)C(=O)N1 (centres unmarked) [Compound C89940]    5.48
Cc1ccc2nnn(C3CCC(=O)NC3=O)c(=O)c2c1 (centres unmarked) [Compound C16463]    5.57
O=C1CCC(Nc2ncccn2)C(=O)N1 (centres unmarked) [Compound C55468]    5.06
Cc1cccc2c1C(=O)N(C1CCC(=O)NC1=O)C2 (centres unmarked) [Compound C28661]    6.18

For each of the items listed, what is its pIC50?
1. Cc1cccc2nnn(C3CCC(=O)NC3=O)c(=O)c12 (centres unmarked) [Compound C13247]
2. N#Cc1ccc2c(c1)CN(C1CCC(=O)NC1=O)C2=O (centres unmarked) [Compound C48005]
3. N#Cc1ccc(Nc2ccc3c(c2)CN(C2CCC(=O)NC2=O)C3=O)nn1 (centres unmarked) [Compound C80378]
4. O=C1CCC(N2Cc3c(NC(=O)Nc4cccc5c4CN(C4CCC(=O)NC4=O)C5=O)cccc3C2=O)C(=O)N1 (centres unmarked) [Compound C30231]
5. Cc1ccc(NC(=O)NCc2cc(C)c3c(c2)CN(C2CCC(=O)NC2=O)C3=O)cc1Cl (centres unmarked) [Compound C58181]

5.64
5.76
5.66
3.61
7.54

For each of the items listed, what is its pIC50?
1. O=C1CCC(N2Cc3cc(NCCNC(=O)Nc4ccccc4)ccc3C2=O)C(=O)N1 (centres unmarked) [Compound C35751]
2. Cc1cc(Nc2ccc3c(c2)C(=O)N(C2CCC(=O)NC2=O)C3)ncn1 (centres unmarked) [Compound C80384]
3. NC(=O)c1ccc2c(c1)C(=O)N(C1CCC(=O)NC1=O)C2 (centres unmarked) [Compound C39772]
4. O=C1CCC(N2C(=O)c3ccccc3C2OCc2ccccc2)C(=O)N1 (centres unmarked)
5. O=C1CCc2cc(C(=O)N3CCc4cccnc43)cnc2N1 [Compound C36128]

1: 6.31; 2: 6.75; 3: 4.86; 4: 4.23; 5: 4.69
